study_system: MAO-B (Homo sapiens, UniProt P27338)
Sequence (P27338 1-520): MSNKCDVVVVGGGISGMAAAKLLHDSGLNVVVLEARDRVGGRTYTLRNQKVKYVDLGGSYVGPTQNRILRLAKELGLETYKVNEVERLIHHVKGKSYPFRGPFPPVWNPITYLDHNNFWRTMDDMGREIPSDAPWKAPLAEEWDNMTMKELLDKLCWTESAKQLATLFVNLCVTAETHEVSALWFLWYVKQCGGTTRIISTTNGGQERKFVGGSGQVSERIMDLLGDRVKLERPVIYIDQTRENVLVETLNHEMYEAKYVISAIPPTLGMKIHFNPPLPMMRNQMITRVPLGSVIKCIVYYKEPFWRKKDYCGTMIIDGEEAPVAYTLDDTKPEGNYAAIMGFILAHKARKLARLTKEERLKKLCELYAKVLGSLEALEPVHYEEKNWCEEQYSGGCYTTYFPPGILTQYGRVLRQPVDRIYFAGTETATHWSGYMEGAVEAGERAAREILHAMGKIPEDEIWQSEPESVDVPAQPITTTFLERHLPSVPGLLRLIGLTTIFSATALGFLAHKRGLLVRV
assay_protocol: Inhibition of recombinant human MAO-B, kynuramine fluorometric assay
Type: biochemical
study_conditions: MAO-B over MAO-A
Friendly reminder: Selectivity index (SI) = IC50(MAO-A)/IC50(MAO-B) below 60 is y, at or above is n.

O=C1CCOc2cc(OCc3ccc(C(F)(F)F)cc3)ccc21 : n
OC1CCCc2ccc(OCc3ccccc3)cc21 (stereo not drawn) : n
CC(C)CCOc1ccc2c(c1)OCCC2=O : n
OC1CCCc2c(OCc3ccccc3)cccc21 (stereo not drawn) : y
O=C1CCCc2cc(OCCOc3ccccc3)ccc21 : n
O=C1CCCc2cc(OCc3ccccc3)ccc21 : y
O=C1CCOc2cc(OCCc3ccc(Cl)cc3)ccc21 : y
